# System: Human C3-[…]
# RUN DESCRIPTION: C3 deposition assay, human serum on mannan-coated plates
# Assay type: biochemical
# TEST CONTEXT: average IC50, read-out: Human C3-DEPOSITION SERUM IC50
Structures can show the parent of a compound that is named as a salt. Numbered stars: 1 amine (or outer) side, 2 acyl side, 3 side chain; on linkers, the order of the positions; unused ones are H or OH. Bridge positions count the residues as written; N and C are the ends. Square brackets hold non-standard residues; d marks the D form. Peptide text beside a SMILES is read from it. * marks the point of attachment. X1 = O=C(C1[C@H]2CCCC[C@H]2C[C@H]1C(=O)[*:2])[C@@H]1CCCN1[*:1]; PEG9 = NCCOCCOCCOCCOCCOCCOCCOCCOCCOCCC(=O)O; Oic = O=C(O)[C@@H]1C[C@@H]2CCCC[C@@H]2N1; tBuAla = CC(C)(C)C[C@H](N)C(=O)O; Pen = CC(C)(S)[C@H](N)C(=O)O; X2 = N[C@@H](CN*)C(=O)O; Sar = CNCC(=O)O
# reported IC50; entries follow
For clarity, give the value followed by its unit.

Observe how each entry below is paired with its result.
INSERT INTO assay_data (compound, study_target, endpoint, result) VALUES
  ('CC[C@H](C)[C@H](NC(=O)CNC)C(=O)N[C@H]1CSSC(C)(C)[C@@H](C(=O)N[C@H](C(=O)N2CCC[C@H]2C(=O)NCCOCCOCCOCCOCCOCCOCCOCCOCCOCCC(N)=O)[C@@H](C)CC)NC(=O)[C@H]([C@@H](C)CC)NC(=O)[C@@H]2CCCN2C(=O)[C@@H]2CCCN2C(=O)[C@H](CC(C)(C)C)NC(=O)[C@H](CO)NC(=O)[C@H](CCCNC(=N)N)NC(=O)[C@H](CO)NC1=O [Example 44] (H-[Sar]ICSRS[tBuAla]PPI[Pen]IP[PEG9]-NH2; disulfide 3-11)', 'Human C3-[…]', 'IC50', '68.5 nM'),
  ('CC[C@H](C)[C@H](NC(=O)CNC)C(=O)N[C@H]1CSSC(C)(C)[C@@H](C(=O)N[C@H](C(=O)N2CCC[C@H]2C(=O)NC[C@H](N)C(=O)O)[C@@H](C)CC)NC(=O)[C@H]([C@@H](C)CC)NC(=O)[C@@H]2C[C@@H]3CCCC[C@@H]3N2C(=O)[C@@H]2CCCN2C(=O)[C@H](CC(C)C)NC(=O)[C@H](CO)NC(=O)[C@H](CCCNC(=N)N)NC(=O)[C@H](CO)NC1=O [Example 467] (H-[Sar]ICSRSLP[Oic]I[Pen]IP-X2; disulfide 3-11)', 'Human C3-[…]', 'IC50', '41.5 nM'),
  ('CC[C@H](C)[C@H](NC(=O)CNC)C(=O)N[C@H]1CSSC(C)(C)[C@@H](C(=O)N[C@H](C(=O)N2CCC[C@H]2C(N)=O)[C@@H](C)CC)NC(=O)[C@H]([C@@H](C)CC)NC(=O)[C@@H]2C[C@@H]3CCCC[C@@H]3C2C(=O)[C@@H]2CCCN2C(=O)[C@H](CC(C)C)NC(=O)[C@H](CO)NC(=O)[C@H](CCCNC(=N)N)NC(=O)[C@H](CO)NC1=O (stereo partly drawn) [Example 67, (HCl Salt)] (H-[Sar]ICSRSL[X1]I[Pen]IP-NH2; disulfide 3-10)', 'Human C3-[…]', 'IC50', '121 nM'),
  ('[2H][C@@H]1[C@H]([2H])CN2C(=O)[C@H](CC(C)C)NC(=O)[C@H](CO)NC(=O)[C@H](CCCNC(=N)N)NC(=O)[C@H](CO)NC(=O)[C@@H](NC(=O)[C@@H](NC(=O)[C@H](C)N)[C@@H](C)CC)CSSC(C)(C)[C@@H](C(=O)N[C@H](C(=O)N3CCC[C@H]3C(=O)N[C@@H](CC(=O)O)C(=O)O)[C@@H](C)CC)NC(=O)[C@H]([C@@H](C)CC)NC(=O)[C@@H]3C[C@@H]4CCCC[C@@H]4N3C(=O)[C@H]12', 'Human C3-[…]', 'IC50', '12.4 nM'),
  ('CC[C@H](C)[C@H](NC(=O)CNC)C(=O)N[C@H]1CSSC(C)(C)[C@@H](C(=O)N[C@H](C(=O)N2CCC[C@H]2C(N)=O)[C@@H](C)CC)NC(=O)[C@H]([C@@H](C)CC)NC(=O)[C@@H]2C[C@@H]3CCCC[C@@H]3N2C(=O)[C@@H]2CCCN2C(=O)[C@H](CC(C)C)NC(=O)[C@H](CO)NC(=O)[C@H](CCCNC(=N)N)NC(=O)[C@H](CO)NC1=O [Example 376] (H-[Sar]ICSRSLP[Oic]I[Pen]IP-NH2; disulfide 3-11)', 'Human C3-[…]', 'IC50', '13.8 nM');

Attention now shifts to the item below.
Consider the compound CC[C@H](C)[C@H](NC(=O)[C@H](C)N)C(=O)N[C@H]1CSSC[C@@H](C(=O)N[C@H](C(=O)N2CCC[C@H]2C(=O)N[C@@H](CC(=O)O)C(N)=O)[C@@H](C)CC)N(C)C(=O)[C@H]([C@@H](C)CC)NC(=O)[C@@H]2C[C@@H]3CCCC[C@@H]3N2C(=O)[C@@H]2CCCN2C(=O)[C@H](CC(C)C)NC(=O)[C@H](CO)NC(=O)[C@H](CCCNC(=N)N)NC(=O)[C@H](CO)NC1=O and give its recorded IC50.
6.74 nM
